- tested-target: SH2 domain of human CRK (human, UniProt P46108 13-118)
- Sequence (P46108 other isoform, or with tags, fused parts or gaps): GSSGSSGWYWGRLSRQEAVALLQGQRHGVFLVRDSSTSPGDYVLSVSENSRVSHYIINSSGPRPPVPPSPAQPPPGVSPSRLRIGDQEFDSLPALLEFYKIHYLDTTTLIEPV
- method-description: ITC
Non-standard residues stand in square brackets, D forms with d. No end group written: not given here. pY = N[C@@H](Cc1ccc(OP(=O)(O)O)cc1)C(=O)O
parameter: pKd
The quantity pKd is defined as the negative base-10 logarithm of the molar concentration.

# count of solved cases: 5
Notebook: HV[pY]SFPNK [paxillin (PXN) Y118 peptide HV-pYSFP-NK] , pKd read as 5.61

The value of pKd measured for the binder SR[pY]QQPFE [PLCG1 Y1253 peptide SR-pYQQP-FE] turned out to be 5.19

The binder SN[pY]MAPYD [PDGFRB Y771 peptide SN-pYMAP-YD] showed pKd equal to 4.60

Form: binder = HH[pY]DTPRS [phosphotyrosyl peptide from M. musculus Dok7 (Y406)] ; pKd = 7.22

Memo: QQ[pY]SSPGL [EPHB6 Y635 peptide QQ-pYSSP-GL] , reported pKd: 5.28

Others:
Input PN[pY]MFPSQ [ROR1 Y789 peptide PN-pYMFP-SQ] . Output pKd: 5.05

The reported pKd of the binder DV[pY]DVPPS [p130Cas (Bcar1) Y291 peptide DV-pYDVP-PS] was 6.34
